target: T1, hPD-1-his (human, UniProt Q15116 25-167); experiment: SPR, Exp. 1
T1 construct: domain: IgV domain; monomer in solution; biotin-labelled where captured by streptavidin; also called biotin-hPD-1-his
T1 sequence (Q15116 other isoform, or with tags, fused parts or gaps limits assumed): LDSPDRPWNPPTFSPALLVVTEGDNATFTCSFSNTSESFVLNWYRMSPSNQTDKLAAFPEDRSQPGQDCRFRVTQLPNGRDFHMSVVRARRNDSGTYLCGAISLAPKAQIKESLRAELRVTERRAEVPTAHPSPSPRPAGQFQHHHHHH

- Binder: "38A6 (antibody, V domains shown, also called 780_46) VH: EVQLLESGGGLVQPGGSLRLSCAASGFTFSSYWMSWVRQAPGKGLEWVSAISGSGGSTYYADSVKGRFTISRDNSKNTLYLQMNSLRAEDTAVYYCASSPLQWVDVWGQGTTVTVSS VL: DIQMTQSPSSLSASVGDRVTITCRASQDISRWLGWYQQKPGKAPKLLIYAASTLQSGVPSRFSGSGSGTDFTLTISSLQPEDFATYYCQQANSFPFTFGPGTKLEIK"
  Kd [nM]: 2.3
- Binder: "33C4 (antibody, V domains shown, also called 780_39) VH: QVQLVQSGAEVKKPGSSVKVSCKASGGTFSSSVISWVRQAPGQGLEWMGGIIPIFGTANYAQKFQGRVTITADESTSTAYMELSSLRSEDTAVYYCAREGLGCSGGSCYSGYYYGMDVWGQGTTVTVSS VL: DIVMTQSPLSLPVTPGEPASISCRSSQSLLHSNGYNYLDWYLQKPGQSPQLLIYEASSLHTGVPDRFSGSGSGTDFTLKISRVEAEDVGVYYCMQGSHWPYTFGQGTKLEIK"
  Kd [nM]: 0.704
- Binder: "38B2 (antibody, V domains shown, 24H9 derivative, IgG; also called 780_54; hPD1 Ab (38B2)) VH: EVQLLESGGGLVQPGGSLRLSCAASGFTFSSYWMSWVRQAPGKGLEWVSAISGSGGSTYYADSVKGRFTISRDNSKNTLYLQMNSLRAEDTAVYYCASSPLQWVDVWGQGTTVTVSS VL: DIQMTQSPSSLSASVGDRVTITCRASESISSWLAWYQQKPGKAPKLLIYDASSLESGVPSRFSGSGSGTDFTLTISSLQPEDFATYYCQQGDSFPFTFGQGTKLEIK"
  Kd [nM]: 0.946
